Data origin: the supplement of paper PMC10307832

Listed here are molecules together with their documented relative viability.
tested on: COR-L23; assay: relative viability (nuclei count vs DMSO), 5 days (fraction); higher = more cells survive; conditions: first compound 2.53 µM
In your answer, state the number alone without any accompanying words.

Lab book: relative viability of C=C1C(=O)O[C@@H](CCCCCCCC)[C@@H]1C(=O)O [C-75] + CS(=O)(=O)CCNCc1ccc(-c2ccc3ncnc(Nc4ccc(OCc5cccc(F)c5)c(Cl)c4)c3c2)o1 [Lapatinib] (partner 2 µM) noted as 0.469

----------
tested on: NCI-H1915; assay: relative viability (nuclei count vs DMSO), 5 days (fraction); higher = more cells survive; details: first compound 0.04 µM
metric name: relative viability
In your answer, state the number alone without any accompanying words.

Solved entries:
# molecule, system name, relative viability
data = [
    ("O=C(O)c1ccc(-c2c[nH]c3ncc(-c4ccccc4)cc23)cc1C1CCCC1 + CC1(C)CCC(c2ccc(Cl)cc2)=C(CN2CCN(c3ccc(C(=O)NS(=O)(=O)c4ccc(N[C@H](CCN5CCOCC5)CSc5ccccc5)c(S(=O)(=O)C(F)(F)F)c4)cc3)CC2)C1 [Navitoclax] (partner 0.5 µM)", "NCI-H1915", 0.769),
    ("O=C(O)c1ccc(-c2c[nH]c3ncc(-c4ccccc4)cc23)cc1C1CCCC1 + Nc1nc2[nH]cc(CCc3ccc(C(=O)N[C@@H](CCC(=O)O)C(=O)O)cc3)c2c(=O)[nH]1 [Pemetrexed] (partner 0.2 µM)", "NCI-H1915", 0.493),
    ("O=C(O)c1ccc(-c2c[nH]c3ncc(-c4ccccc4)cc23)cc1C1CCCC1 + O=C(CCCCCCC(=O)Nc1ccccc1)NO [Vorinostat] (partner 1 µM)", "NCI-H1915", 0.532),
]

Lab book: relative viability of O=C(O)c1ccc(-c2c[nH]c3ncc(-c4ccccc4)cc23)cc1C1CCCC1 + CS(=O)(=O)N1CCN(Cc2cc3nc(-c4cccc5[nH]ncc45)nc(N4CCOCC4)c3s2)CC1 [Pictilisib] (partner 1 µM) noted as 0.992

----------
system: NCI-H441; assay: relative viability (nuclei count vs DMSO), 5 days (fraction); higher = more cells survive; details: first compound 0.1 µM
Listed here are compounds together with their documented relative viability.
In your answer, state the number alone without any accompanying words.

Solved entries:
# compound, system name, relative viability
data = [
    ("NC(=O)Nc1cc(-c2cccc(F)c2)sc1C(=O)N[C@H]1CCCNC1 [AZD7762] + Nc1nc2[nH]cc(CCc3ccc(C(=O)N[C@@H](CCC(=O)O)C(=O)O)cc3)c2c(=O)[nH]1 [Pemetrexed] (partner 0.2 µM)", "NCI-H441", 0.294),
    ("NC(=O)Nc1cc(-c2cccc(F)c2)sc1C(=O)N[C@H]1CCCNC1 [AZD7762] + O=C(CCCCCCC(=O)Nc1ccccc1)NO [Vorinostat] (partner 1 µM)", "NCI-H441", 1.01),
    ("NC(=O)Nc1cc(-c2cccc(F)c2)sc1C(=O)N[C@H]1CCCNC1 [AZD7762] + CS(=O)(=O)N1CCN(Cc2cc3nc(-c4cccc5[nH]ncc45)nc(N4CCOCC4)c3s2)CC1 [Pictilisib] (partner 1 µM)", "NCI-H441", 0.7),
]

Lab book: relative viability of NC(=O)Nc1cc(-c2cccc(F)c2)sc1C(=O)N[C@H]1CCCNC1 [AZD7762] + C[C@]1(O)C[C@@H](c2nc(-c3ccc4ccc(-c5ccccc5)nc4c3)c3c(N)nccn32)C1 [Linsitinib] (partner 1 µM) noted as 0.657

----------
Listed here are compounds together with their documented relative viability.
test system: HCC-366; assay: relative viability (nuclei count vs DMSO), 5 days (fraction); higher = more cells survive; details: first compound 0.04 µM
In your answer, state the number alone without any accompanying words.

Solved entries:
# compound, relative viability
data = [
    ("O=C(O)c1ccc(-c2c[nH]c3ncc(-c4ccccc4)cc23)cc1C1CCCC1 + COc1cc2c(Oc3ccc(NC(=O)C4(C(=O)Nc5ccc(F)cc5)CC4)cc3F)ccnc2cc1OCCCN1CCOCC1 [Foretinib] (partner 0.25 µM)", 0.948),
    ("O=C(O)c1ccc(-c2c[nH]c3ncc(-c4ccccc4)cc23)cc1C1CCCC1 + C[C@@H](Oc1cc(-c2cnn(C3CCNCC3)c2)cnc1N)c1c(Cl)ccc(F)c1Cl [Crizotinib] (partner 1 µM)", 0.502),
    ("O=C(O)c1ccc(-c2c[nH]c3ncc(-c4ccccc4)cc23)cc1C1CCCC1 + C[C@]1(O)C[C@@H](c2nc(-c3ccc4ccc(-c5ccccc5)nc4c3)c3c(N)nccn32)C1 [Linsitinib] (partner 1 µM)", 0.657),
    ("O=C(O)c1ccc(-c2c[nH]c3ncc(-c4ccccc4)cc23)cc1C1CCCC1 + Cc1cc(Nc2cc(N3CCN(C)CC3)nc(Sc3ccc(NC(=O)C4CC4)cc3)n2)n[nH]1 [Tozasertib] (partner 0.1 µM)", 0.128),
]

Next item in the queue.
Lab book: relative viability of O=C(O)c1ccc(-c2c[nH]c3ncc(-c4ccccc4)cc23)cc1C1CCCC1 + O=C(CCCCCCC(=O)Nc1ccccc1)NO [Vorinostat] (partner 1 µM) noted as 0.368

----------
system: LK-2; assay: relative viability (nuclei count vs DMSO), 5 days (fraction); higher = more cells survive; details: first compound 0.1581 µM
metric name: relative viability
In your answer, state the number alone without any accompanying words.

Observed relative viability on LK-2, entry CC1(C)CCC(c2ccc(Cl)cc2)=C(CN2CCN(c3ccc(C(=O)NS(=O)(=O)c4ccc(N[C@H](CCN5CCOCC5)CSc5ccccc5)c(S(=O)(=O)C(F)(F)F)c4)cc3)CC2)C1 [Navitoclax] + COc1cc2c(Oc3ccc(NC(=O)C4(C(=O)Nc5ccc(F)cc5)CC4)cc3F)ccnc2cc1OCCCN1CCOCC1 [Foretinib] (partner 0.25 µM) , equals 1.24

----------
test system: COR-L23; test: relative viability (nuclei count vs DMSO), 5 days (fraction); higher = more cells survive; conditions: first compound 0.8 µM
Listed here are compounds together with their documented relative viability.
In your answer, state the number alone without any accompanying words.

# compound, relative viability
rows = [
    ("C=C1C(=O)O[C@@H](CCCCCCCC)[C@@H]1C(=O)O [C-75] + Nc1nc2[nH]cc(CCc3ccc(C(=O)N[C@@H](CCC(=O)O)C(=O)O)cc3)c2c(=O)[nH]1 [Pemetrexed] (partner 0.2 µM)", 0.2),
    ("C=C1C(=O)O[C@@H](CCCCCCCC)[C@@H]1C(=O)O [C-75] + COc1cc2c(Oc3ccc(NC(=O)C4(C(=O)Nc5ccc(F)cc5)CC4)cc3F)ccnc2cc1OCCCN1CCOCC1 [Foretinib] (partner 0.25 µM)", 0.856),
    ("C=C1C(=O)O[C@@H](CCCCCCCC)[C@@H]1C(=O)O [C-75] + N=C(N)NC(=N)NCCc1ccccc1 [Phenformin] (partner 250 µM)", 0.41),
    ("Oc1nc(-c2ccc(C(F)(F)F)cc2)nc2c1CSCC2 [XAV939] + Nc1nc2[nH]cc(CCc3ccc(C(=O)N[C@@H](CCC(=O)O)C(=O)O)cc3)c2c(=O)[nH]1 [Pemetrexed] (partner 0.2 µM)", 0.203),
    ("Oc1nc(-c2ccc(C(F)(F)F)cc2)nc2c1CSCC2 [XAV939] + Nc1ncn([C@H]2C[C@H](O)[C@@H](CO)O2)c(=O)n1 [Decitabine] (partner 2 µM)", 0.424),
]

Lab book: relative viability of C=C1C(=O)O[C@@H](CCCCCCCC)[C@@H]1C(=O)O [C-75] + Nc1ncn([C@H]2C[C@H](O)[C@@H](CO)O2)c(=O)n1 [Decitabine] (partner 2 µM) noted as 0.415

----------
tested on: NCI-H647; assay: relative viability (nuclei count vs DMSO), 5 days (fraction); higher = more cells survive; settings: first compound 0.01581 µM
metric name: relative viability

# compound, system name, relative viability
records = [
    ("CC1(C)CCC(c2ccc(Cl)cc2)=C(CN2CCN(c3ccc(C(=O)NS(=O)(=O)c4ccc(N[C@H](CCN5CCOCC5)CSc5ccccc5)c(S(=O)(=O)C(F)(F)F)c4)cc3)CC2)C1 [Navitoclax] + C[C@@H](Oc1cc(-c2cnn(C3CCNCC3)c2)cnc1N)c1c(Cl)ccc(F)c1Cl [Crizotinib] (partner 1 µM)", "NCI-H647", 1.18),
    ("CC1(C)CCC(c2ccc(Cl)cc2)=C(CN2CCN(c3ccc(C(=O)NS(=O)(=O)c4ccc(N[C@H](CCN5CCOCC5)CSc5ccccc5)c(S(=O)(=O)C(F)(F)F)c4)cc3)CC2)C1 [Navitoclax] + CS(=O)(=O)N1CCN(Cc2cc3nc(-c4cccc5[nH]ncc45)nc(N4CCOCC4)c3s2)CC1 [Pictilisib] (partner 1 µM)", "NCI-H647", 0.396),
]

Next item in the queue.
Lab book: relative viability of CC1(C)CCC(c2ccc(Cl)cc2)=C(CN2CCN(c3ccc(C(=O)NS(=O)(=O)c4ccc(N[C@H](CCN5CCOCC5)CSc5ccccc5)c(S(=O)(=O)C(F)(F)F)c4)cc3)CC2)C1 [Navitoclax] + C[C@]1(O)C[C@@H](c2nc(-c3ccc4ccc(-c5ccccc5)nc4c3)c3c(N)nccn32)C1 [Linsitinib] (partner 1 µM) noted as 1.12
